Value source: patent US20140294878A1

Exercise: for every item that follows, state its recorded % inhibition of Bet v 1-IgE binding.
molecular target: IgE of patient serum 7; assay: ELISA inhibition, serum 7 pre-incubated with 1.25 µg/ml inhibitor; competitor: wt Bet v 1 adsorbed on wells

[
  {
    "Binder": "wild-type Bet v 1-Mal d 1 hybrid molecule (SEQ ID NO: 3) (protein) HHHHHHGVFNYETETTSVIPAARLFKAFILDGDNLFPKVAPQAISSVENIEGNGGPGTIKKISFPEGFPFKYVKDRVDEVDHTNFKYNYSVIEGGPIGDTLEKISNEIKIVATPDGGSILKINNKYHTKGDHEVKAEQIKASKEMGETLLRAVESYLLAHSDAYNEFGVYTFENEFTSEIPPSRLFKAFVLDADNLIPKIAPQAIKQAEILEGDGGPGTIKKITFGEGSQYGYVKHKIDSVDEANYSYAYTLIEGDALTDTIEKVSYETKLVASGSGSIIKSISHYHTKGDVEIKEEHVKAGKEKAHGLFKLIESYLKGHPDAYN",
    "% inhibition of Bet v 1-IgE binding": "15.9%"
  }
]

Hi, could you look up % inhibition of Bet v 1-IgE binding for each item in my list?
1. mutant Bet v 1-Mal d 1 hybrid molecule (SEQ ID NO: 4) (protein) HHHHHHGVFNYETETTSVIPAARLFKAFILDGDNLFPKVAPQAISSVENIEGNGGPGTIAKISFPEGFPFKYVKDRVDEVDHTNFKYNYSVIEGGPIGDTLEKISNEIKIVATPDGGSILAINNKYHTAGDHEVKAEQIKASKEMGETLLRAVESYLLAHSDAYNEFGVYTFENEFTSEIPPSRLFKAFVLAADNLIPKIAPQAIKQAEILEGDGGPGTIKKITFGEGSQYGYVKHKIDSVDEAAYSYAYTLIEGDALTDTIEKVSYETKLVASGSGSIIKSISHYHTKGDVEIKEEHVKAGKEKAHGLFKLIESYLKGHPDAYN
2. mixture of the two mutagenised allergens (mut Bet v 1-SEQ ID NO:6 and mut Mal d 1-SEQ ID NO:2) (protein) chain 1: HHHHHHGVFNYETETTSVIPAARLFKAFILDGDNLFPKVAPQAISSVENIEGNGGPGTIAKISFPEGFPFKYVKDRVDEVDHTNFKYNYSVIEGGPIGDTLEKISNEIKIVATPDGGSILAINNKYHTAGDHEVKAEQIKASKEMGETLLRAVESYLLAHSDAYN chain 2: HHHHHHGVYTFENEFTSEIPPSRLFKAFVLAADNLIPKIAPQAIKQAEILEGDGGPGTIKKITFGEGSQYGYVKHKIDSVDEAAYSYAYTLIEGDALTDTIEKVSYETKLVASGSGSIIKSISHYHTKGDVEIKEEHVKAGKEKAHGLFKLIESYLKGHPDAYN

Response given:
1. 18.2%
2. 20.6%

Challenge: Report % inhibition of Bet v 1-IgE binding, nothing else, for this binder: mixture of the single wt allergens (wt Bet v 1 and wt Mal d 1) (protein) chain 1: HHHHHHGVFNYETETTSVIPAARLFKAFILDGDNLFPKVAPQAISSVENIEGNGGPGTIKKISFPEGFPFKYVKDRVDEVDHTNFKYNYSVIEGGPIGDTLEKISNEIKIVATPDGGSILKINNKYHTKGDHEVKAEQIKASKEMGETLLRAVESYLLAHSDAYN chain 2: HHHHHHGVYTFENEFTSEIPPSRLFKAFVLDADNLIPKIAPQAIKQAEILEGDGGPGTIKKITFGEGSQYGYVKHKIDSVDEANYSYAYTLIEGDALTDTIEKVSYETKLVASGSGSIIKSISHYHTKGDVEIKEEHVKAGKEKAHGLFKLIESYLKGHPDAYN
Response given: 36.8%
